Molecular target: human CXCR4 receptor (wild type) (human, UniProt P61073 1-352)
Sequence (P61073 whole entry): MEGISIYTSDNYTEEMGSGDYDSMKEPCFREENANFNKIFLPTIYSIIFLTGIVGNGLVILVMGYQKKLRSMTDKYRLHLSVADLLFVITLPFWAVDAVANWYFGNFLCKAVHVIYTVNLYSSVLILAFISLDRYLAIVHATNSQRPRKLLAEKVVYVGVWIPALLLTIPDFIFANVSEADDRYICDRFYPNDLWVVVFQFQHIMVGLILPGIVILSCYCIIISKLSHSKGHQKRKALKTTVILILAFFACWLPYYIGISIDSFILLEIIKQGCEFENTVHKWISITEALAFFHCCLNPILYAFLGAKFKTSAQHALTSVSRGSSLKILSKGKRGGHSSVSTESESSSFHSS
Experiment: cell-based or functional assay
quantity measured: IC50, [35S]GTPγS binding, NIH3T3/CXCR4 cells, SDF-1 10 nM (nM)
Return type: number; implicit unit nM.

Solved cases (2 shown):
anti-CXCR4 chimeric Mab c414H5 (antibody, human IgG1, kappa, V domains shown, they may be whole chains; also called chimeric 414H5) VH: EVKLVESGGGLVQPGGSLRLSCTTSGFTFTDYYMSWVRQSPGKALEWLTFIRNKANGYTTEYSASVKGRFTISRDNSQSILYLQMNTLRAEDSATYYCARDIPGFAYWGQGTLVTVSA VL: DIVMSQSPSSLAVSAGEKVTMSCKSSQSLYNSRTRKNYLAWYQQKPGQSPKLLIYWASTRESGVPDRFTGSGSGTDFTLTITSVQAEDLAVFYCKQSYNLRTFGGGTKLEIKR = 1.1
anti-CXCR4 Mab 414H5 (antibody, V domains shown) VH: EVKLVESGGGLVQPGGSLRLSCTTSGFTFTDYYMSWVRQSPGKALEWLTFIRNKANGYTTEYSASVKGRFTISRDNSQSILYLQMNTLRAEDSATYYCARDIPGFAYWGQGTLVTVSA VL: DIVMSQSPSSLAVSAGEKVTMSCKSSQSLYNSRTRKNYLAWYQQKPGQSPKLLIYWASTRESGVPDRFTGSGSGTDFTLTITSVQAEDLAVFYCKQSYNLRTFGGGTKLEIK = 1.6

Attention now turns to another entry.
Record anti-CXCR4 chimeric Mab c515H7 (antibody, human IgG1, kappa, V domains shown, they may be whole chains; also called chimeric 515H7) VH: EVNLVESGGGLVQPGGSLRLSCATSGFTFTDNYMSWVRQPPGKALEWLGFIRNKANGYTTDYSASVRGRFTISRDNSQSILYLQMNALRAEDSATYYCARDVGSNYFDYWGQGTTLTVSS VL: DIVMSQSPSSLAVSAGEKVTMSCKSSQSLFNSRTRKNYLAWYQQKPGQSPKLLIYWASARDSGVPARFTGSGSETYFTLTISRVQAEDLAVYYCMQSFNLRTFGGGTKLEIKR . Reported IC50, [35S]GTPγS binding, NIH3T3/CXCR4 cells, SDF-1 10 nM: 1.5
